Data credit: ChEMBL document CHEMBL1150977

A collection of compounds and their measured Kd
- Assayed target: Atypical kinase COQ8B, mitochondrial (Homo sapiens, UniProt Q96D53)
- Sequence (Q96D53 whole entry): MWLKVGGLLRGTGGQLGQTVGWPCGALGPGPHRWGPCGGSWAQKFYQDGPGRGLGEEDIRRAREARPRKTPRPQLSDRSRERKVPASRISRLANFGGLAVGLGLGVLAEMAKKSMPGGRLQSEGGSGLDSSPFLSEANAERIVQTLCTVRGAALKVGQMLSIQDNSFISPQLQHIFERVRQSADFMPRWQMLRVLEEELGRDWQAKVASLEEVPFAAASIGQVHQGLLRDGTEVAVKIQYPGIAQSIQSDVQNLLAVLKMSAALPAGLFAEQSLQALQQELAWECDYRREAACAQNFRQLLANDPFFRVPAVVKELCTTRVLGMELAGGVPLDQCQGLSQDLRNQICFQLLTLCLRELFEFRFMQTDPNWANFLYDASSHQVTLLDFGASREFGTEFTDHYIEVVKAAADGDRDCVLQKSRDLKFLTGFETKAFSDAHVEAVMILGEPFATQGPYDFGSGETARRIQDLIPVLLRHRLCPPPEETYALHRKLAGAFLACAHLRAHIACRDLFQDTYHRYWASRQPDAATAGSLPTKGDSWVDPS

As a guide, the following entries are already answered.
COCC(=O)NC/C=C/c1ccc2ncnc(Nc3ccc(Oc4ccc(C)nc4)c(C)c3)c2c1 [CP-724714] :: > 10 µM
Nc1nc(Nc2ccc(S(N)(=O)=O)cc2)nn1C(=O)c1c(F)cccc1F [JNJ-7706621] :: > 10 µM

Now, please, on to the next compound.
Prompt: Missing value: Kd, Atypical kinase COQ8B, mitochondrial (Homo sapiens, UniProt Q96D53), entry NC(=O)c1ccc(-c2nc(-c3ccc4c(c3)OCO4)c(-c3ccccn3)[nH]2)cc1 [SB-431542] . Fill in?
Completion: > 10 µM
